Reference source: patent US20230331828A1

target: T1, Aβ1-42 fibrils (human); experiment: SPR (BIAcore T200); Aβ1-42 fibrils immobilized, antibody as analyte; global 1:1 fit
T1 construct: Aβ1-42 polypeptide, HFIP-treated, incubated in 10 mM HCl at 37 C for 24 h, pelleted fibrillar fraction, sonicated; Multimeric fibril; also called fibril Aβ42; fibrillar Aβ42
T1 sequence (peptide, as listed by the source): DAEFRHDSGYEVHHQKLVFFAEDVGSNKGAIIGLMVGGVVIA
observedProperty: koff (s⁻¹)
The answer is to be given in s⁻¹; state only the numeric part.

**Q:** Give me measured koff, please, for this binder: h2731 (antibody, V domains shown, Humanized IgG mAb; Only the variable domains are tied to the construct) VH: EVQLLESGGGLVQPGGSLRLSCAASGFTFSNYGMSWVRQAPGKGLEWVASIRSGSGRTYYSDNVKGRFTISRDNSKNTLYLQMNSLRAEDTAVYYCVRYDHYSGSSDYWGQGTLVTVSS VL: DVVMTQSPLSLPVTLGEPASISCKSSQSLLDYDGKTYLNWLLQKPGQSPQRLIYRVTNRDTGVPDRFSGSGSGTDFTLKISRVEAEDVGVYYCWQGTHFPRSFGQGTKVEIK
**A:** 2.62e-05

**Q:** Specify reported koff for the binder shown: h2831 (antibody, V domains shown, Humanized IgG mAb; also called PB-0575) VH: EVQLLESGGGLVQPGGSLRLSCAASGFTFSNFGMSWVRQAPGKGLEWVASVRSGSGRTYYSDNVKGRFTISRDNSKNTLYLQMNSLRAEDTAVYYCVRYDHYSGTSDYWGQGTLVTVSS VL: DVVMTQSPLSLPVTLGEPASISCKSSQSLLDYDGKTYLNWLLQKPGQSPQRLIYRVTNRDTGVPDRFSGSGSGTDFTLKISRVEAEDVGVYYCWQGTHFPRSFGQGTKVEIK
**A:** 2.94e-05

**Q:** Recall and state the measured koff for h2931 (antibody, V domains shown, also called PB-0576) VH: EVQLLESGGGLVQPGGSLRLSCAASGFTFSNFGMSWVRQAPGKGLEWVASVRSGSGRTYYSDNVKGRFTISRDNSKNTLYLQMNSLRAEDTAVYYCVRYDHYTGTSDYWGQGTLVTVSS VL: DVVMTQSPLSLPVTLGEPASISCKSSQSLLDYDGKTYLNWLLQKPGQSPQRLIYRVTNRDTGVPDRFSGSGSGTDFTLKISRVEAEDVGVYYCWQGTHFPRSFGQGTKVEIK .
**A:** 2.05e-05
